Recorded measurements of cytotoxicity at 70.5 h, one per entry
Experiment: Human HepG2 cell viability assay in 384 well format
Assay type: toxicity, cell-based
Design: dose 125 nL, time 70.5 hour; concentration not given beside the values
Conditions: HepG2 cells, read-out: Inhibition
Answer in %, number only, no unit symbol.

Consider the worked cases shown below.
CS(=O)(=O)c1cn[nH]c1C1CCCN(C(=O)CN2CCOCC2)C1 (configuration not stated)    -5.31
Cc1c(C(=O)NCCC(=O)N2CCCC2)cccc1-c1ccccn1    -17.7

Qu. Report cytotoxicity at 70.5 h for O=C(CSc1ccccc1)N1CCC(N2CCCCC2=O)CC1
Ans. 19

Qu. Report cytotoxicity at 70.5 h for CC(C)SCc1cccc(NC(=O)NCCc2nnc[nH]2)c1
Ans. 11.5

Qu. Report cytotoxicity at 70.5 h for CN(Cc1nccn1CC(F)(F)F)C(=O)c1ccc(F)cc1F
Ans. -5.49

Qu. Report cytotoxicity at 70.5 h for Cn1cc(CN2CCCC3(COCCN(c4cccnc4)C3)C2)cn1 (configuration not stated)
Ans. -6.27

Qu. Report cytotoxicity at 70.5 h for CCc1ccc(C2CCCN2C(=O)NCC(=O)NCC(C)C)o1 (configuration not stated)
Ans. 21.4

Qu. Report cytotoxicity at 70.5 h for O=C1CC2(CCCCN2C(=O)c2ccco2)CN1c1cccnc1 (configuration not stated)
Ans. 15.4

Qu. Report cytotoxicity at 70.5 h for CCOCc1nc2c(c(N3CC=CC3)n1)CCN(C1CCOCC1)CC2
Ans. 0.826

Qu. Report cytotoxicity at 70.5 h for Cc1ccc(Cl)c2c1C1(NC(=O)c3cccnc3N1)C(=O)N2 (configuration not stated)
Ans. -5.73

Qu. Report cytotoxicity at 70.5 h for Cc1cnn(CC2CCCN2CCCS(C)(=O)=O)c1 (configuration not stated)
Ans. -2.25

* * *

Experiment: Human HepG2 cell viability assay in 384 well format
Format: toxicity, cell-based
Parameters: dose 125 nL, time 70.5 hour; concentration not given beside the values
Details: HepG2 cells, read-out: Inhibition
readout: cytotoxicity at 70.5 h (%)
Answer in %, number only, no unit symbol.

Qu. Report cytotoxicity at 70.5 h for Cc1c(C(=O)N2CCCC2c2cnn(C)c2)nnn1-c1ccccc1 (stereo not given)
Ans. -7.15

Qu. Report cytotoxicity at 70.5 h for CCN1CCC(N2CCN(c3cc(-c4nc(C)no4)ccn3)CC2)CC1
Ans. 11.7

Qu. Report cytotoxicity at 70.5 h for CC(C)(C(=O)N1CCCC(OCc2cccnc2)C1)n1cccc1 (stereo not given)
Ans. -4.94

Qu. Report cytotoxicity at 70.5 h for CCc1nccn1CCC(=O)N1CC(=O)N(c2ccccc2C)CC1C (stereo not given)
Ans. -7.9

Qu. Report cytotoxicity at 70.5 h for COc1ccc(S(=O)(=O)N[C@H]2CN(C(C)=O)C[C@@H]2C2CC2)cc1C
Ans. -14.2

Qu. Report cytotoxicity at 70.5 h for COc1ccc(C)cc1CNC(=O)C1=NN(c2ccccc2)C(=O)CN1
Ans. -5.19

Qu. Report cytotoxicity at 70.5 h for Fc1ccc(OC2CCN(Cc3nnc(-c4ccco4)o3)CC2)cc1
Ans. 18.9

Qu. Report cytotoxicity at 70.5 h for COc1cccc(CN(C)c2ncc(C(N)=O)cc2Cl)c1
Ans. -4.58

Qu. Report cytotoxicity at 70.5 h for COCC(=O)N1CC[C@]2(O)CCN(Cc3ccsc3)C[C@@H]2C1
Ans. -7.01

Qu. Report cytotoxicity at 70.5 h for Cc1cc(NC(=O)CN2CCCC(Cn3nc(C)nc3C)C2)n(C)n1 (stereo not given)
Ans. -2.11

* * *

Experiment: Human HepG2 cell viability assay in 384 well format
Format: toxicity, cell-based
Parameters: dose 125 nL, time 70.5 hour; concentration not given beside the values
Conditions: HepG2 cells, read-out: Inhibition
readout: cytotoxicity at 70.5 h
Your reply should be a number followed by the unit it is expressed in.

Cc1nc(C2CCN(S(C)(=O)=O)CC2)nc(N2CCCC2)c1C    -3.13%

Qu. Report cytotoxicity at 70.5 h for CC(C)CCN1C[C@H]2C[C@H](C(=O)Nc3ccccc3)[C@@H](C1)O2
Ans. -21.4%

Qu. Report cytotoxicity at 70.5 h for O=S(=O)(C1CC1)N1CCC2(CCN(Cc3nccs3)CC2)CC1
Ans. -2.17%

Qu. Report cytotoxicity at 70.5 h for CN1C(=O)C2(CCN(S(=O)(=O)C3CC3)CC2)c2ccccc21
Ans. -2.07%

* * *

Assay: Human HepG2 cell viability assay in 384 well format
Type: toxicity, cell-based
Parameters: dose 125 nL, time 70.5 hour; concentration not given beside the values
Conditions: HepG2 cells, read-out: Inhibition
readout: cytotoxicity at 70.5 h (%)
Answer in %, number only, no unit symbol.

Consider the worked cases shown below.
CC1CCCN(c2ncc(-c3ccccc3F)c(-c3nccn3C)n2)C1 (stereo not given)    -12.5
NC(=O)NCCC(=O)NCc1cccnc1N1CCc2ccccc2C1    -11.6
Cc1noc(C)c1CS(=O)(=O)CC(=O)N1CCc2sccc2C1    -3.02

Qu. Report cytotoxicity at 70.5 h for CO[C@@H]1CCN(Cc2cnn(C)c2)[C@@H]2CN(Cc3cccnc3)C[C@@H]21
Ans. -9.6

Qu. Report cytotoxicity at 70.5 h for Cc1cc(COC(=O)[C@@H]2Cc3ccccc3CN2S(C)(=O)=O)no1
Ans. 1.54

Qu. Report cytotoxicity at 70.5 h for Fc1cccc(OC2CCN(CCn3cc4ccccc4n3)CC2)c1
Ans. -21.6

Qu. Report cytotoxicity at 70.5 h for Fc1ccc(C2(CNCCc3cccs3)CCOC2)cc1 (stereo not given)
Ans. -6.84

Qu. Report cytotoxicity at 70.5 h for Cc1ccc(CC(=O)N2CCCn3nnc(Cn4cccn4)c3C2)cc1
Ans. -9.04

Qu. Report cytotoxicity at 70.5 h for O=C(Nc1cnccn1)[C@@H]1COC[C@H]2CN(C3CCC3)C[C@H]21
Ans. -87.9

Qu. Report cytotoxicity at 70.5 h for O=C(C1CCCC1)N1C[C@@H](c2ccsc2)[C@@H]2CN(C3CCCC3)CC[C@@H]21
Ans. -8.32

Qu. Report cytotoxicity at 70.5 h for Cc1nn(C)c(N(C)C)c1CNCCCN(C)S(C)(=O)=O
Ans. -6.18

Qu. Report cytotoxicity at 70.5 h for CCc1ccc(NS(=O)(=O)CC2=NC(=O)n3cccc3C2=O)cc1
Ans. -5.39

Qu. Report cytotoxicity at 70.5 h for CC(=O)Nc1cccc2c1ccn2CC(=O)Nc1nc[nH]n1
Ans. -2.28

Qu. Report cytotoxicity at 70.5 h for COc1cccc(COC(C)C(=O)NC2CCN(CC(N)=O)CC2)c1 (stereo not given)
Ans. -7.36

Qu. Report cytotoxicity at 70.5 h for CCCc1noc(CCCC(=O)N2CCCC(n3ccnc3C)C2)n1 (stereo not given)
Ans. -2.44

* * *

Recorded measurements of cytotoxicity at 70.5 h, one per entry
Assay: Human HepG2 cell viability assay in 384 well format
Type: toxicity, cell-based
Parameters: dose 125 nL, time 70.5 hour; concentration not given beside the values
Settings: HepG2 cells, read-out: Inhibition
Answer in %, number only, no unit symbol.

Cc1nc(C2CCN(C(=O)CO)CC2)cc(N2CCOCC2)n1    -7.87

Qu. Report cytotoxicity at 70.5 h for O=C(NC[C@]12COC[C@H]1CN(CC1CCOCC1)C2)c1ccccc1
Ans. 1.78

Qu. Report cytotoxicity at 70.5 h for CC(=O)N1CCN(C(=O)NCc2ccccc2Cn2ccnc2)CC1
Ans. -14.1

Qu. Report cytotoxicity at 70.5 h for Cc1c(Cl)cccc1NC(=O)N1CCC2(CC1)NC(=O)CC2C(=O)O (stereo not given)
Ans. 1.01

Qu. Report cytotoxicity at 70.5 h for CN(C)[C@@H]1CCN(C(=O)Cc2ccc(F)cc2)[C@H]1Cc1cnn(C)c1
Ans. -10.4

* * *

Test: Human HepG2 cell viability assay in 384 well format
Type: toxicity, cell-based
Design: dose 125 nL, time 70.5 hour; concentration not given beside the values
Conditions: HepG2 cells, read-out: Inhibition
readout: cytotoxicity at 70.5 h (%)
Answer in %, number only, no unit symbol.

CCc1noc(C2CCCCN2C(=O)c2cccs2)n1 (centres undefined)    -4.33

Qu. Report cytotoxicity at 70.5 h for CC(Cn1ccnc1)NC(=O)N(C)Cc1ccc2c(c1)OCCO2 (centres undefined)
Ans. 26.7

Qu. Report cytotoxicity at 70.5 h for CCc1nc(C2CCCN2Cc2nc3ccccc3o2)no1 (centres undefined)
Ans. -17.9

Qu. Report cytotoxicity at 70.5 h for Cn1cc(C(=O)N2CCCC2c2ccc3c(c2)OCCO3)ccc1=O (centres undefined)
Ans. -4.05

Qu. Report cytotoxicity at 70.5 h for COc1ccc(CN2C[C@@H]3COC[C@]3(CN(C)C)C2)cc1
Ans. -12.6

Qu. Report cytotoxicity at 70.5 h for CC(C)c1nc(CN(C)C(=O)c2ccc3c(c2)OCO3)cs1
Ans. -9.84

Qu. Report cytotoxicity at 70.5 h for Cc1cc(C(=O)N2CCc3nnc(N)cc3C2)c(C)n1-c1ccccc1
Ans. -1.62
